Target: recombinant rat PIM-3 (Rattus norvegicus)
Experiment: PIM-3 Assay (as Example A)
Details: averaged IC50; 30 μM ATP, 3.75 μM PIM2tide, 0.5 nM PIM-3
Where a name gives a salt, the structure may show the parent alone.
# pIC50 per entry
The value called pIC50 is obtained by taking minus log10 of the concentration in mol/L.

Example compounds with recorded pIC50:
INSERT INTO measurements (compound, recorded_measurement) VALUES
  ('N[C@H]1CCN([C@H](c2ccc3nnc(-c4ccc5cccc(OC(F)(F)F)c5n4)n3c2)C(F)(F)F)C1 [Example 40, dihydrochloride]', 8.33),
  ('N#CCOc1cccc2ccc(-c3nnc4ccc([C@@H](N5CC[C@H](N)C5)C(F)(F)F)cn34)nc12 [Example 270, formate]', 8.72),
  ('N[C@@H]1CCN(C(c2ccc3nnc(-c4ccc5cccc(OCC6CC6)c5n4)n3c2)C(F)(F)F)C1 (stereo partly drawn) [Example 16, dihydrochloride]', 8.22),
  ('CC(C)Oc1cc(F)cc2ccc(-c3nnc4ccc([C@H](N5CC[C@](C)(N)C5)C(F)(F)F)cn34)nc12 [Example 216, dihydrochloride]', 9.10);

Now let's try a different one.
Fill blank: measured pIC50 of the compound N[C@H]1CCN([C@H](c2ccc3nnc(-c4ccc5cccc(F)c5n4)n3c2)C(F)(F)F)C1 [Example 168, dihydrochloride] is ____.
7.82
